target: Calmodulin-1 (Homo sapiens); assay: small molecules binding calmodulin-1 with EGTA – biochemical, small-molecule microarray, Cy5-labelled CALM1, profiling panel (AID 1111); conditions: Cy5-CALM1 binding fluorescence, higher = more signal;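 further: labelled calmodulin applied in Tris saline Tween buffer holding calcium plus EGTA and DTT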
Metric: composite z-score
Please reply with the number alone, leaving off any unit.

Worked examples, 2 compounds total:
Compound: O=[N+]([O-])c1ccc(C[n+]2ccc(CCCO)cc2)o1
Metric: composite z-score
Reported Value: 1.2
//
Compound: C=C(/C(=C/C[C@@H](OC(C)=O)c1ccc(CO)o1)c1cnc2ccccc2c1)C(C)C
Metric: composite z-score
Reported Value: 0.384

Now consider a different compound.
Form: Entry = O=C1NC(=O)C2C1C=CC(C(O)c1cccs1)N2Nc1ccccn1 (stereo not given) | System = Calmodulin-1 (Homo sapiens) | composite z-score = ____
0.0761

* * *

assay: basal CRE-LacZ reporter activity in PC12 – cell-based, unstimulated, primary screen (AID 1145); details: no forskolin, luminescence, 4.5 h, higher = more signal, called active from +8 up or from −8 down
Use 0.2 as the dividing line for z-score, with the line itself on the satisfied side and lower values as not satisfied.

Hello, I need to know if `O=C1c2ccccc2[C@](Cc2ccccc2I)(C(=O)O)[C@H](c2ccc(CO)cc2)N1Cc1ccccc1C(F)(F)F` has measured z-score not below 0.2. Thanks!
not satisfied

Hello, I need to know if O=C(NCC(O)CO)[C@]1(CCS(=O)(=O)c2ccccc2)N=C(c2ccc(OCCCO)cc2)O[C@@H]1c1ccccc1 (stereo partly specified) has measured z-score not below 0.2. Thanks!
satisfied

Hello, I need to know if `COCCOC(=O)N1C(=O)[C@@]2(c3cc(C#Cc4ccc(OC)cc4)ccc31)[C@H](c1ccc(OCCO)cc1)N1[C@H](c3ccccc3)[C@H](c3ccccc3)OC(=O)[C@H]1[C@@H]2C(=O)N1CCc2cc(OC)c(OC)cc2C1` has measured z-score not below 0.2. Thanks!
not satisfied

Hello, I need to know if `C=CCNC(=O)[C@H]1[C@@H]2C(=O)O[C@@H](c3ccccc3)[C@@H](c3ccccc3)N2[C@@H](c2ccc(O)cc2)[C@]12C(=O)Nc1ccc(C#Cc3ccc(OC)cc3)cc12` has measured z-score not below 0.2. Thanks!
not satisfied

Hello, I need to know if CCN(CC)c1ccc(N2CC=CC34O[C@@H]5C=CCOC(=O)[C@@H]5[C@H]3C(=O)N(CCCCCO)[C@@H]4C2=O)cc1 (stereo partly specified) has measured z-score not below 0.2. Thanks!
satisfied

* * *

molecular target: Follistatin-related protein 3 (Homo sapiens) (UniProt O95633); test: compounds binding follistatin-related protein 3 – biochemical, small-molecule microarray, 635 nm fluorescence, primary screen (AID 1105); details: FSTL3 binding, higher = more signal;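 further: score merges emission near 667 nm and signal to noise per printed spot across three slides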
Sequence (O95633 whole entry, looked up): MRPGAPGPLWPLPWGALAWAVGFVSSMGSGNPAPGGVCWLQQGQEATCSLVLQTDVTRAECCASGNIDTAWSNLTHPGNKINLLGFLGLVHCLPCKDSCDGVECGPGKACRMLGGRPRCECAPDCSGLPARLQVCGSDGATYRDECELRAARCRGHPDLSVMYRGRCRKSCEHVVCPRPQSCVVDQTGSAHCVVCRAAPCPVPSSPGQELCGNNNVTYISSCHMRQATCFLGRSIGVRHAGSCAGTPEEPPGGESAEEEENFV
Some compounds, each annotated with its measured composite z-score.
Please reply with the number alone, leaving off any unit.

Worked examples, 3 compounds total:
Compound: COC(=O)c1c(CC[C@@H](CO)NC(=O)Nc2ncn[nH]2)oc(C(=O)Cc2ccccc2)c1C(=O)OC
composite z-score: 1.01
--
Compound: C=CCC(OC(C)=O)[C@@H]1[C@@H](N(Cc2cc3ccccc3o2)C(=O)c2cccc3ccccc23)c2cc(OCCCO)ccc2N1C(=O)Cc1ccc2ccccc2c1 (some centres undefined)
composite z-score: 0.0969
--
Compound: O=c1cccc(-c2cccc3ccccc23)o1
composite z-score: -0.218

Now consider a different compound.
// composite z-score lookup, key: `[N-]=[N+]=NCc1ccccc1C[C@]1(C(=O)N2CCOCC2)N=C(c2ccc(OCCCO)cc2)O[C@H]1c1ccccc1`
0.223
